# SYSTEM_TESTED: UniProt Q96KQ7
# Sequence (Q96KQ7 whole entry): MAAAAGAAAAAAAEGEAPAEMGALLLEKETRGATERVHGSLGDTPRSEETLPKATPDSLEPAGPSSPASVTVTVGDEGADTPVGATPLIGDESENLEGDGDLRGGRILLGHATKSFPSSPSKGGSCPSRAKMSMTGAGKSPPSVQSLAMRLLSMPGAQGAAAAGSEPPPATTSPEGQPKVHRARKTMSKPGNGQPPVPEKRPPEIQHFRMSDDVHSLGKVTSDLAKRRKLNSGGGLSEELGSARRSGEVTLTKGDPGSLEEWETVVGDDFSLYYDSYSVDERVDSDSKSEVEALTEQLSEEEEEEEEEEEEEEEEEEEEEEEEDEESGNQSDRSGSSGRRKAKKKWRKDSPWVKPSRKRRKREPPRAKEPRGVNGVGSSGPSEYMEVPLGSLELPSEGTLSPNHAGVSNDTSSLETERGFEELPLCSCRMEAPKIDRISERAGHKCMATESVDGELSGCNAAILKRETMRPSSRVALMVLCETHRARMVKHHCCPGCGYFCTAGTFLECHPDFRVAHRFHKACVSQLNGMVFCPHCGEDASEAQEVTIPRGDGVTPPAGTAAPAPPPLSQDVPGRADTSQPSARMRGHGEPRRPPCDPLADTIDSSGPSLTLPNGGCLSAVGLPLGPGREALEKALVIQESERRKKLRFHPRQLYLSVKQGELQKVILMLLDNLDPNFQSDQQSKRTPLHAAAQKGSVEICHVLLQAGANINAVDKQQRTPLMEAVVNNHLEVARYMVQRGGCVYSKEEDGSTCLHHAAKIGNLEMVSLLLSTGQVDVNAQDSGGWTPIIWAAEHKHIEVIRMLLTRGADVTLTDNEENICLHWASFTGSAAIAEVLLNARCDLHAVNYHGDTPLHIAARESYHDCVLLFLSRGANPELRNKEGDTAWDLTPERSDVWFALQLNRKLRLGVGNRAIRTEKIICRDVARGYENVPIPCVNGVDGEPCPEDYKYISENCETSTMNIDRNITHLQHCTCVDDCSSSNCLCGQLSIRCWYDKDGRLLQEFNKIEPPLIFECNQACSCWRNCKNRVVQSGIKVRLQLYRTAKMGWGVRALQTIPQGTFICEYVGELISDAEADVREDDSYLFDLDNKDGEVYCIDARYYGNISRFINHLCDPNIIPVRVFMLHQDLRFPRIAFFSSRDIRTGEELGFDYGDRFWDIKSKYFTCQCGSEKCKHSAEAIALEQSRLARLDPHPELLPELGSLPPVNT
# ASSAY_REMARKS: Inhibition of G9a by Alpha screen assay
Record form. Attribute: pIC50. Fill in for each entry.
Answers are plain numbers, as −log10 of the molar value.

Report pIC50 for each item below.
1. COc1cc2nc(Cl)nc(NC3CCN(C)CC3)c2cc1OC
2. COc1cc2nc(N3CCCCC3)nc(NC3CCN(C)CC3)c2cc1OC
3. COc1cc2nc(N3CCOCC3)nc(NC3CCN(C)CC3)c2cc1OC
4. COc1cc2nc(N3CCCN(C)CC3)nc(NC(C)C)c2cc1OC
5. COc1cc2nc(N3CCCN(C)CC3)nc(NC3CC3)c2cc1OC

Reply:
1: 5.04; 2: 6.29; 3: 6.09; 4: 5.24; 5: 5.29
